- System: mPer2Luc MEF
- protocolDetails: PER2::LUC luminescence relative to vehicle control (fold of vehicle); higher = higher PER2::LUC reporter signal
- conditionDetails: time after treatment 30 h; 10 µM
Whole data set: some 5,300 compounds, median “PER2::LUC luminescence relative to vehicle control” near 0.96, cut for the highest 2% near 1.3. The full list was thinned out, with the highest values kept by preference.
valueType: PER2::LUC luminescence

N[C@H](CCC(=O)O)C(=O)O = 1.01
O=c1c(O)c(-c2ccc(O)cc2)oc2cc(O)cc(O)c12 = 0.989
CC1=CC(=O)CC(C)(C)C1(O)/C=C/C(C)=C\C(=O)O (racemic) = 1.02
c1ccc(Cc2nc3ccccc3[nH]2)cc1 = 0.971
O=C(O)c1c[nH]c(=O)cn1 = 0.999
O=c1c(O)c(-c2ccccc2O)oc2cc(O)cc(O)c12 = 0.996

----------
Item-by-item account of PER2::LUC luminescence
- Test system: mPer2Luc MEF
- protocolDetails: PER2::LUC luminescence relative to vehicle control (fold of vehicle); higher = higher PER2::LUC reporter signal
- conditionDetails: time after treatment 24 h; 10 µM
The full ranking holds about 5,300 compounds; the median of “PER2::LUC luminescence relative to vehicle control” is about 0.96, and the highest 2% start at about 1.3. The full list was thinned out, with the highest values kept by preference.
valueType: PER2::LUC luminescence

Nc1ccc(NC(=O)c2ccc(C(F)(F)F)cc2)nc1 = 1.01
COc1cnc(NS(=O)(=O)c2ccc(N)cc2)nc1 = 0.926
COc1nccnc1NS(=O)(=O)c1ccc(N)cc1 = 1
COc1ncnc(NS(=O)(=O)c2ccc(N)cc2)c1OC = 0.986

----------
- Tested on: mPer2Luc MEF
- protocolDetails: PER2::LUC luminescence relative to vehicle control (fold of vehicle); higher = higher PER2::LUC reporter signal
- conditionDetails: time after treatment 24 h; 10 µM
Whole data set: some 5,300 compounds, median “PER2::LUC luminescence relative to vehicle control” near 0.96, cut for the highest 2% near 1.3. Shown is part of a subset that was picked to be rich in the highest values.
valueType: PER2::LUC luminescence

O=C(Nc1ccc(S(=O)(=O)Nc2ccccc2Cl)c(Cl)c1)c1ccccn1 = 0.992
CC1(C)O[C@@H]2C[C@H]3[C@@H]4C[C@H](F)C5=CC(=O)C=C[C@]5(C)[C@@]4(F)[C@@H](O)C[C@]3(C)[C@]2(C(=O)CO)O1 = 0.902
O[C@H]1CCN2Cc3ccccc3N=C12 = 0.987

----------
- Tested on: mPer2Luc MEF
- protocolDetails: PER2::LUC luminescence relative to vehicle control (fold of vehicle); higher = higher PER2::LUC reporter signal
- conditionDetails: time after treatment 24 h; 10 µM
The full ranking holds about 5,300 compounds; the median of “PER2::LUC luminescence relative to vehicle control” is about 0.96, and the highest 2% start at about 1.3. Shown is part of a subset that was picked to be rich in the highest values.
valueType: PER2::LUC luminescence

CC1CCC(C(C)C)C(O)C1 (racemic) = 1.02
COc1cc(/C=C/C(=O)O)cc(OC)c1OC = 0.994
O=[N+]([O-])c1cn(CCN2CCOCC2)cn1 = 0.977
N#Cc1nccc(Oc2cccc(-c3ccc(CN)cc3)c2)n1 = 0.994
COc1cc2ccc(=O)oc2cc1O = 1.02
CC(C)Cc1ccc([C@@H](C)C(=O)O)cc1 = 0.974

----------
- Test system: mPer2Luc MEF
- protocolDetails: PER2::LUC luminescence relative to vehicle control (fold of vehicle); higher = higher PER2::LUC reporter signal
- conditionDetails: time after treatment 24 h; 10 µM
The full ranking holds about 5,300 compounds; the median of “PER2::LUC luminescence relative to vehicle control” is about 0.96, and the highest 2% start at about 1.3. What follows is part of a selection rich in the highest values, with near analogues and random picks from the rest.
valueType: PER2::LUC luminescence

CNc1ncnc2c1ncn2[C@@H]1O[C@H](CO)[C@@H](O)[C@H]1O = 0.974
CO/S(=N\S(=O)(=O)c1ccc(Cl)cc1)c1ccc([N+](=O)[O-])cc1 (stereo not drawn) = 0.994
O=C1NC(=O)/C(=C/c2cccc(C(F)(F)F)c2)S1 = 1.02

----------
- Tested on: mPer2Luc MEF
- protocolDetails: PER2::LUC luminescence relative to vehicle control (fold of vehicle); higher = higher PER2::LUC reporter signal
- conditionDetails: time after treatment 30 h; 10 µM
Over roughly 5,300 compounds, “PER2::LUC luminescence relative to vehicle control” has its median near 0.96; the highest 2% begin near 1.3. The sample holds the highest values, similar compounds and a random draw of the others, so the mix is not that of the screen.
Documented PER2::LUC luminescence across a set of compounds
valueType: PER2::LUC luminescence

COc1ccc2c(c1)OCc1c-2oc2cc(OC)ccc12 = 1.8
C[C@H]1CCN(C(=O)CC#N)C[C@H]1N(C)c1ncnc2[nH]ccc12 = 1.02
O=C(NCC1(c2nc(-c3ccccc3)cs2)CCOCC1)c1cccc(-c2noc(C(F)(F)F)n2)c1 = 0.884
COc1ccc(-c2oc3ccccc3c(=O)c2OC)cc1 = 1.2

----------
- System: mPer2Luc MEF
- protocolDetails: PER2::LUC luminescence relative to vehicle control (fold of vehicle); higher = higher PER2::LUC reporter signal
- conditionDetails: time after treatment 24 h; 10 µM
Whole data set: some 5,300 compounds, median “PER2::LUC luminescence relative to vehicle control” near 0.96, cut for the highest 2% near 1.3. The sample holds the highest values, similar compounds and a random draw of the others, so the mix is not that of the screen.
We use 1 as the dividing line for PER2::LUC luminescence: on or above the line is rule met, below is rule not met.

COc1ccc2cc(CCC(C)=O)ccc2c1 = rule met
CCN(CC)CCNC(=O)COc1ccc(OC)cc1 = rule met
O=c1cc(-c2ccc(O)cc2)oc2cc(O[C@@H]3O[C@H](CO)[C@@H](O)[C@H](O)[C@H]3O)cc(O)c12 = rule met
O=C(O)c1cc(-c2ccccc2)nc2ccccc12 = rule not met
COc1ccc(CCN2CN=C(SCc3ccc(Cl)cc3)NC2)cc1OC = rule not met
CN1C(=O)C[C@H](C(=O)O)[C@H]1c1cccnc1 = rule met
C=CCO/N=C1\c2ccccc2-c2nc(C#N)c(C#N)nc21 = rule not met
Cn1cc(-c2ccc3nnc(Sc4ccc5nn(C)cc5c4)n3n2)cn1 = rule not met
O=C(O)[C@@]1(CCCCCCOc2ccc(Cl)cc2)CO1 = rule not met

----------
- Test system: mPer2Luc MEF
- protocolDetails: PER2::LUC luminescence relative to vehicle control (fold of vehicle); higher = higher PER2::LUC reporter signal
- conditionDetails: time after treatment 30 h; 10 µM
Whole data set: some 5,300 compounds, median “PER2::LUC luminescence relative to vehicle control” near 0.96, cut for the highest 2% near 1.3. The sample as a whole holds a higher share of the highest values than the screen did.
# PER2::LUC luminescence values compiled below
valueType: PER2::LUC luminescence

O=C(O)c1ccccc1Nc1ccccc1 = 0.974
CC(=O)Nc1ccc(NC(=S)NC(=O)c2ccc(C(C)(C)C)cc2)cc1 = 0.973
CCCCCCCC/C=C/CCCCCCCCOP(=O)([O-])OCC[N+](C)(C)C = 0.935
CN1C(=O)C(Cc2c[nH]c3ccccc23)NC1=S (configuration not stated) = 1.36
CCCCC(CC)COC(=O)C=Cc1ccc(OC)cc1 (configuration not stated) = 1.14
CCCCN(CCCC)S(=O)(=O)c1ccc(C(=O)O)cc1 = 1.04
O=C(Nc1ccc(C(F)(F)F)cn1)c1cccc2cccnc12 = 1.03

----------
In this section we review reported PER2::LUC luminescence values for a set of compounds.
- System: mPer2Luc MEF
- protocolDetails: PER2::LUC luminescence relative to vehicle control (fold of vehicle); higher = higher PER2::LUC reporter signal
- conditionDetails: time after treatment 30 h; 10 µM
In all, about 5,300 compounds were measured (“PER2::LUC luminescence relative to vehicle control”: median about 0.96, highest 2% from about 1.3 on). The entries come from a sample that favours the highest values as a whole.
valueType: PER2::LUC luminescence

OCC1OC(O)CC(O)C1O (centres undefined) = 0.973
COc1c(O)cc(O)c2c(=O)cc(-c3ccccc3)oc12 = 1.02
C[C@@H](Nc1cc(NS(=O)(=O)N2CCC2)nc(SCc2cccc(F)c2F)n1)[C@@H](O)CO = 1
CC1(C)CCC[C@](C)([C@H]2CC[C@]3(C)[C@@H]2[C@H](O)C[C@@H]2[C@@]4(C)CC[C@H](O)C(C)(C)[C@@H]4CC[C@]23C)O1 = 1.02

Where do the numbers come from? From the supplement of paper PMC9334596.
